Target: RARβ (Homo sapiens, UniProt P10826)
Sequence (P10826 1-448 isoform P10826-2): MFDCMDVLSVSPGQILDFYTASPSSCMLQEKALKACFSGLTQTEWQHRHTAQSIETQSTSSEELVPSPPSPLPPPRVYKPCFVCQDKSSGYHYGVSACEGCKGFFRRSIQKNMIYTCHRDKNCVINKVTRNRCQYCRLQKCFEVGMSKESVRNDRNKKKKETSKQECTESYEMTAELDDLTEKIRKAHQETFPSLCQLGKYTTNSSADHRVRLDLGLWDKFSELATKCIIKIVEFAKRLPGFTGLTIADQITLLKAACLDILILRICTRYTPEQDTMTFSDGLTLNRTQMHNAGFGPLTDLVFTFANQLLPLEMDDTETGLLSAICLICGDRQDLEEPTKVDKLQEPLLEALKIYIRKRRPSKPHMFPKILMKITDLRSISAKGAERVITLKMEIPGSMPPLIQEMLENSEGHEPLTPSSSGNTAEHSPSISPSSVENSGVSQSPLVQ
Assay: Holoreceptor transactivation assay
Format: cell-based
Set-up: expressed in transfected cells; host or cells: CV1 cells
Conditions: relative to all trans retinoic acid; read-out: Transactivation Assay Efficacy (% of RA activity) RARβ
compounds and their reported Emax
Your answer should be a plain number; it is taken to be in %.

Before answering, review these 10 worked examples.
1) Cc1cc(C)cc(C2=CCC(C)(C)c3ccc(C#Cc4ccc(C(=O)O)cc4)cc32)c1 [Compound 24] :: 7
2) CC1(C)CC=C(c2ccc(C(F)(F)F)cc2)c2cc(C#Cc3ccc(C(=O)O)cc3)ccc21 [Compound 23] :: 6
3) CC1(C)CC=C(c2cccnc2)c2cc(C#Cc3ccc(C(=O)O)cc3)ccc21 [Compound 26] :: 6
4) Cc1cccc(C2=CCC(C)(C)c3ccc(C#Cc4ccc(C(=O)O)cc4)cc32)c1 [Compound 20] :: 4
5) Cc1ccc(C2=CCC(C)(C)c3ccc(C#Cc4ccc(C(=O)O)cc4)cc32)cc1 [Compound 60] :: 1
6) Cc1ccc(C2=CCC(C)(C)c3ccc(C(=S)Nc4ccc(C(=O)O)c(F)c4)cc32)cc1 [Compound 63] :: 2
7) Cc1ccc(C2=CCC(C)(C)c3ccc(N=Nc4ccc(C(=O)O)cc4)cc32)cc1 [Compound 46b] :: 5
8) Cc1csc(C2=CCC(C)(C)c3ccc(C#Cc4ccc(C(=O)O)cc4)cc32)n1 [Compound 31] :: 14
9) CC1(C)CC=C(c2ccccc2)c2ccc(C(=O)C=Cc3ccc(C(=O)O)cc3)cc21 [Compound 103] :: 12
10) CCc1ccc(C2=CCC(C)(C)c3ccc(C#Cc4ccc(C(=O)O)cc4)cc32)cc1 [Compound 21] :: 2

Exam item: Field request: Emax | item: Cc1ccc(C2=CCC(C)(C)c3cc(C(=O)C=Cc4ccc(C(=O)O)cc4)ccc32)cc1 [Compound 101]
Marked response: 4

Exam item: Field request: Emax | item: Cc1nc(C2=CCC(C)(C)c3ccc(C#Cc4ccc(C(=O)O)cc4)cc32)sc1C [Compound 32]
Marked response: 2

Exam item: Field request: Emax | item: CC(/C=C/C=C(\C)c1ccc2c(c1)C(c1ccc(C)cc1)=CCC2(C)C)=C\C(=O)O [Compound 52]
Marked response: 15

Exam item: Field request: Emax | item: CC1(C)CC=C(c2ccc(Cl)cc2)c2cc(C#Cc3ccc(C(=O)O)cc3)ccc21 [Compound 25]
Marked response: 3

Exam item: Field request: Emax | item: Cc1cnc(C2=CCC(C)(C)c3ccc(C#Cc4ccc(C(=O)O)cc4)cc32)s1 [Compound 30]
Marked response: 5

Exam item: Field request: Emax | item: CC(C)(C)c1ccc(C2=CCC(C)(C)c3ccc(C#Cc4ccc(C(=O)O)cc4)cc32)cc1 [Compound 61]
Marked response: 2

====

compounds and their reported Emax
molecular target: RXRα (Homo sapiens); construct: expressed in transfected cells; host or cells: CV1 cells; assay: Holoreceptor transactivation assay; assay type: cell-based; details: relative to all trans retinoic acid; read-out: Transactivation Assay Efficacy (% of RA activity) RXRα
Sequence (P19793 whole entry): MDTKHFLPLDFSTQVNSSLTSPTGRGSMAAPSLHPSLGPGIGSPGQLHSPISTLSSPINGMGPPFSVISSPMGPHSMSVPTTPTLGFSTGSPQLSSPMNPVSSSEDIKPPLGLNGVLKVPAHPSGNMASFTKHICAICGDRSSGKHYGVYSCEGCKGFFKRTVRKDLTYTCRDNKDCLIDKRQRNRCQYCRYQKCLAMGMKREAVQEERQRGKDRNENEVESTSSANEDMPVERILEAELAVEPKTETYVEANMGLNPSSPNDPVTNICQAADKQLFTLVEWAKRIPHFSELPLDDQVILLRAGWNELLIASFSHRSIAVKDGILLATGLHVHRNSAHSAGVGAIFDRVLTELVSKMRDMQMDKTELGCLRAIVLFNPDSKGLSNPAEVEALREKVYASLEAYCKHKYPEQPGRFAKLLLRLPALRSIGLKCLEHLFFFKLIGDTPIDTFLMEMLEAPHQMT
Your answer should be a plain number; it is taken to be in %.

1. Cc1cnc(C2=CCC(C)(C)c3ccc(C#Cc4ccc(C(=O)O)cc4)cc32)s1 [Compound 30] :: 0
2. Cc1ccc(C2=CCC(C)(C)c3ccc(C(=S)Nc4ccc(C(=O)O)c(F)c4)cc32)cc1 [Compound 63] :: 1
3. Cc1ccc(C2=CCC(C)(C)c3ccc(C#Cc4ccc(C(=O)O)cc4)cc32)cn1 [Compound 18] :: 2
4. Cc1ccc(C2=CCC(C)(C)c3cc(C(=O)C=Cc4ccc(C(=O)O)cc4)ccc32)cc1 [Compound 101] :: 1
5. Cc1ccc(C2=CCC(C)(C)c3ccc(C(=O)Nc4ccc(C(=O)O)cc4)cc32)cc1 [Compound 36] :: 1

Exam item: Field request: Emax | item: CC1(C)CC=C(c2ccc(Cl)cc2)c2cc(C#Cc3ccc(C(=O)O)cc3)ccc21 [Compound 25]
Marked response: 5

Exam item: Field request: Emax | item: COc1ccc(C2=CCC(C)(C)c3ccc(C#Cc4ccc(C(=O)O)cc4)cc32)cc1 [Compound 22]
Marked response: 1

Exam item: Field request: Emax | item: Cc1csc(C2=CCC(C)(C)c3ccc(C#Cc4ccc(C(=O)O)cc4)cc32)n1 [Compound 31]
Marked response: 1

Exam item: Field request: Emax | item: CC1(C)CC=C(c2cccnc2)c2cc(C#Cc3ccc(C(=O)O)cc3)ccc21 [Compound 26]
Marked response: 2

Exam item: Field request: Emax | item: Cc1cc(C)cc(C2=CCC(C)(C)c3ccc(C#Cc4ccc(C(=O)O)cc4)cc32)c1 [Compound 24]
Marked response: 1

====

target: RXRγ (Mus musculus, UniProt P28705); construct: expressed in transfected cells; host or cells: CV1 cells; test: Holoreceptor transactivation assay; format: cell-based; settings: relative to all trans retinoic acid; read-out: Transactivation Assay Efficacy (% of RA activity) RXRγ
Test Readout: Emax
Please state the value followed by its unit.

Before answering, review these 3 worked examples.
1) COc1ccc(C2=CCC(C)(C)c3ccc(C#Cc4ccc(C(=O)O)cc4)cc32)cc1 [Compound 22] :: 2%
2) Cc1ccc(C2=CCC(C)(C)c3ccc(C(=O)Nc4ccc(C(=O)O)cc4)cc32)cc1 [Compound 36] :: 2%
3) CC1(C)CC=C(c2cccnc2)c2cc(C#Cc3ccc(C(=O)O)cc3)ccc21 [Compound 26] :: 3%

Exam item: Quick check: Emax on RXRγ (Mus musculus, UniProt P28705), item Cc1ccc(C2=CCC(C)(C)c3ccc(C(=S)Nc4ccc(C(=O)O)c(F)c4)cc32)cc1 [Compound 63] ?
Marked response: 1%

====

target: RARα (Homo sapiens, UniProt P10276); assay: Ligand binding assay; set-up: expressed in transfected cells; host or cells: CV1 cells; conditions: read-out: Kd (nanomolar) RARα
Sequence (P10276 whole entry): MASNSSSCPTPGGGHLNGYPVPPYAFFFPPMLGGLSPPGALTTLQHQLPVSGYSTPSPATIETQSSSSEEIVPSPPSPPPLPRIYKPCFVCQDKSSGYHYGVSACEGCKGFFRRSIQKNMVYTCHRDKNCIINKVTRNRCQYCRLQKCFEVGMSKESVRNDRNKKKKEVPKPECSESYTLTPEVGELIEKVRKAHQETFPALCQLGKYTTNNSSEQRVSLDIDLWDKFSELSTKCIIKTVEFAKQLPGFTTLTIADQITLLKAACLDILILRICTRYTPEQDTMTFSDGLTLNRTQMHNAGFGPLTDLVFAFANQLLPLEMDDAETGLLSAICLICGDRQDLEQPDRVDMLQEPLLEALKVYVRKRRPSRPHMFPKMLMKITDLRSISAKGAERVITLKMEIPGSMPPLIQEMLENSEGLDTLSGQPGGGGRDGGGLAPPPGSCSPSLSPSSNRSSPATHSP
compounds and their reported pKd
Worth noting: pKd values are minus log10 of concentrations stated in mol/L.

1. Cc1cnc(C2=CCC(C)(C)c3ccc(C#Cc4ccc(C(=O)O)cc4)cc32)s1 :: 6.17

Exam item: Field request: pKd | item: `CC1(C)CC=C(c2ccc(O)cc2)c2cc(C#Cc3ccc(C(=O)O)cc3)ccc21`
Marked response: 6.63

Exam item: Field request: pKd | item: `Cc1csc(C2=CCC(C)(C)c3ccc(C#Cc4ccc(C(=O)O)cc4)cc32)n1`
Marked response: 6.43

Exam item: Field request: pKd | item: `CC1(C)CC=C(c2ccc(Cl)cc2)c2cc(C#Cc3ccc(C(=O)O)cc3)ccc21`
Marked response: 7.30

Exam item: Field request: pKd | item: `CC1(C)CC=C(c2ccccc2)c2ccc(C(=O)C=Cc3ccc(C(=O)O)cc3)cc21`
Marked response: 6.52

Exam item: Field request: pKd | item: `CCc1ccc(C2=CCC(C)(C)c3ccc(C#Cc4ccc(C(=O)O)cc4)cc32)cc1`
Marked response: 7.80

Exam item: Field request: pKd | item: `CC1(C)CC=C(c2ccccn2)c2cc(C#Cc3ccc(C(=O)O)cc3)ccc21`
Marked response: 6.25

====

compounds and their reported Emax
Molecular target: RXRγ (Mus musculus)
Construct: expressed in transfected cells; host or cells: CV1 cells
Sequence (P28705 1-463): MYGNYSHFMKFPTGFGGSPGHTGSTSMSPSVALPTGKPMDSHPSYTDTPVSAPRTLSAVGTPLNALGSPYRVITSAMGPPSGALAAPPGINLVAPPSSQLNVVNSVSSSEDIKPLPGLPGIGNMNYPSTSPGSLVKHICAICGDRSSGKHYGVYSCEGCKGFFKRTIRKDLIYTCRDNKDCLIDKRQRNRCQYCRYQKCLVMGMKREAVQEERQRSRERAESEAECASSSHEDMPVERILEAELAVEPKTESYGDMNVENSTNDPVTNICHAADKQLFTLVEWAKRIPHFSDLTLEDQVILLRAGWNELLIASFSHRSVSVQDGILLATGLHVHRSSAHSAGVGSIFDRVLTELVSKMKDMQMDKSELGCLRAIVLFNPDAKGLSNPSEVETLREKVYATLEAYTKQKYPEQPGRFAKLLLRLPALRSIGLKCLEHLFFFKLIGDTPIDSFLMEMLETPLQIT
Assay: Holoreceptor transactivation assay
Type: cell-based
Details: relative to all trans retinoic acid; read-out: Transactivation Assay Efficacy (% of RA activity) RXRγ
Please state the value followed by its unit.

1) CC1(C)CC=C(c2ccc(O)cc2)c2cc(C#Cc3ccc(C(=O)O)cc3)ccc21 :: 2%
2) CC(/C=C/C=C(\C)c1ccc2c(c1)C(c1ccc(C)cc1)=CCC2(C)C)=C\C(=O)O :: 10%
3) Cc1csc(C2=CCC(C)(C)c3ccc(C#Cc4ccc(C(=O)O)cc4)cc32)n1 :: 6%

Here is the next item to consider.
Exam item: Field request: Emax | item: `Cc1cnc(C2=CCC(C)(C)c3ccc(C#Cc4ccc(C(=O)O)cc4)cc32)s1`
Marked response: 3%
